Origin of measurements: patent US20250163119A1

Tested on: MHC-II presented peptides on human dendritic cells
assay-summary: MAPPS assay (MHC-Associated Peptide Proteomics)
Format: cell-based
condition-label: donors displaying MHC-II peptides / donors tested
*1 amine or outer side, *2 acyl side, *3 side chain or, on linkers, in order; H or OH if unused. Side-chain parts run from the residue outwards. [ ]: non-standard residue; d: D form. The star is where a group is joined. C20 diacid = O=C(O)CCCCCCCCCCCCCCCCCCC(=O)*; γGlu = O=C(O)[C@H](CCC(=O)[*:2])N[*:1]; εLys = N[C@@H](CCCCN[*:1])C(=O)[*:2]; pGlu = O=C1CC[C@@H](C(=O)O)N1; αMeL = CC(C)C[C@](C)(N)C(=O)O; AEEA = NCCOCCOCC(=O)O; Aib = CC(C)(N)C(=O)O
metric: MAPPS Assay >10 donors with diverse MHC

{"substance": "γGlu-GPSIVTS[αMeL]D[dV]PI[Aib][αMeL]LQIKLEQERAEKARQQAK([AEEA-AEEA-γGlu-C20 diacid])ENTEILAQV-NH2 [SEQ ID NO: 45]", "MAPPS Assay >10 donors with diverse MHC": "0/20"}
{"substance": "{C20 diacid-εLys-AEEA-γGlu}-GSPSIVTS[αMeL]DVPT[Aib][αMeL]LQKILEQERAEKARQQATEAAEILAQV-NH2 [SEQ ID NO: 25]", "MAPPS Assay >10 donors with diverse MHC": "0/10"}
{"substance": "[pGlu]GSPSGIVTS[αMeL]DVPT[Aib][αMeL]LQKILEQERAEKARQQAK([γGlu-AEEA-εLys-C20 diacid])EAAEILAQV-NH2 [SEQ ID NO: 22]", "MAPPS Assay >10 donors with diverse MHC": "1/10"}

Proceed to the following item.
[in] Given the substance Ac-GSPSIVTS[αMeL]DVPT[Aib][αMeL]LQKILEQERAEKARQQAK([γGlu-AEEA-εLys-C20 diacid])EAAEILAQV-NH2 [SEQ ID NO: 1] , what is its reported MAPPS Assay >10 donors with diverse MHC?
[out] 3/20

* * *

assay-summary: Pharmacokinetics in Sprague Dawley rats, single subcutaneous or intravenous dose (incl. 10, 30, 100 nmol/kg dose response)
Type: in vivo
condition-label: rat, plasma; male Sprague Dawley rats; single intravenous dose 190 nmol/kg; Mean; read-out: AUC0-inf
*1 amine or outer side, *2 acyl side, *3 side chain or, on linkers, in order; H or OH if unused. [ ]: non-standard residue; d: D form. The star is where a group is joined. C20 diacid = O=C(O)CCCCCCCCCCCCCCCCCCC(=O)*; γGlu = O=C(O)[C@H](CCC(=O)[*:2])N[*:1]; εLys = N[C@@H](CCCCN[*:1])C(=O)[*:2]; αMeL = CC(C)C[C@](C)(N)C(=O)O; AEEA = NCCOCCOCC(=O)O; Aib = CC(C)(N)C(=O)O
metric: AUC0-inf
Kindly format the answer as number then unit.

[in] Given the substance {C20 diacid-εLys-AEEA-γGlu}-GSPSIVTS[αMeL]DVPT[Aib][αMeL]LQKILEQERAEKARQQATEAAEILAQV-NH2 [SEQ ID NO: 25] , what is its reported AUC0-inf?
[out] 50 µM·h

* * *

assay-summary: Pharmacokinetics in Sprague Dawley rats, single subcutaneous or intravenous dose (incl. 10, 30, 100 nmol/kg dose response)
Format: in vivo
condition-label: male, Sprague Dawley, rat, plasma, iv, 187 nmol/kg, single intravenous dose 187 nmol/kg, individual animal
*1 amine or outer side, *2 acyl side, *3 side chain or, on linkers, in order; H or OH if unused. Side-chain parts run from the residue outwards. [ ]: non-standard residue; d: D form. The star is where a group is joined. C20 diacid = O=C(O)CCCCCCCCCCCCCCCCCCC(=O)*; γGlu = O=C(O)[C@H](CCC(=O)[*:2])N[*:1]; εLys = N[C@@H](CCCCN[*:1])C(=O)[*:2]; αMeL = CC(C)C[C@](C)(N)C(=O)O; AEEA = NCCOCCOCC(=O)O; Aib = CC(C)(N)C(=O)O
metric: clearance
Kindly format the answer as number then unit.

[in] Given the substance Ac-GSPSIVTS[αMeL]DVPT[Aib][αMeL]LQKILEQERAEKARQQAK([γGlu-AEEA-εLys-C20 diacid])EAAEILAQV-NH2 [SEQ ID NO: 1] , what is its reported clearance?
[out] 1.69 mL/h/kg

* * *

Measured AUC0-inf of individual entries
assay-summary: Pharmacokinetics in Sprague Dawley rats, single subcutaneous or intravenous dose (incl. 10, 30, 100 nmol/kg dose response)
Format: in vivo
condition-label: rat, plasma, sc; dose response, single subcutaneous dose 30 nmol/kg, male Sprague Dawley rats, mean; read-out: AUC0-inf
*1 amine or outer side, *2 acyl side, *3 side chain or, on linkers, in order; H or OH if unused. Side-chain parts run from the residue outwards. [ ]: non-standard residue; d: D form. The star is where a group is joined. C20 diacid = O=C(O)CCCCCCCCCCCCCCCCCCC(=O)*; γGlu = O=C(O)[C@H](CCC(=O)[*:2])N[*:1]; εLys = N[C@@H](CCCCN[*:1])C(=O)[*:2]; pGlu = O=C1CC[C@@H](C(=O)O)N1; αMeL = CC(C)C[C@](C)(N)C(=O)O; AEEA = NCCOCCOCC(=O)O; Aib = CC(C)(N)C(=O)O
Answer in µM·h, number only, no unit symbol.

{"substance": "[pGlu]GSPSGIVTS[αMeL]DVPT[Aib][αMeL]LQKILEQERAEKARQQAK([γGlu-AEEA-εLys-C20 diacid])EAAEILAQV-NH2 [SEQ ID NO: 22]", "value-reported": 7.76}
{"substance": "{C20 diacid-εLys-AEEA-γGlu}-GSPSIVTS[αMeL]DVPT[Aib][αMeL]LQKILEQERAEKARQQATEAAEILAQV-NH2 [SEQ ID NO: 25]", "value-reported": 2.84}

Proceed to the following item.
[in] Given the substance Ac-GSPSIVTS[αMeL]DVPT[Aib][αMeL]LQKILEQERAEKARQQAK([γGlu-AEEA-εLys-C20 diacid])EAAEILAQV-NH2 [SEQ ID NO: 1] , what is its reported AUC0-inf?
[out] 7.01

* * *

assay-summary: Pharmacokinetics in Sprague Dawley rats, single subcutaneous or intravenous dose (incl. 10, 30, 100 nmol/kg dose response)
Assay type: in vivo
condition-label: male, Sprague Dawley, rat, plasma, sc, 30 nmol/kg, dose response, single subcutaneous dose 30 nmol/kg, individual animal
*1 amine or outer side, *2 acyl side, *3 side chain or, on linkers, in order; H or OH if unused. Side-chain parts run from the residue outwards. [ ]: non-standard residue; d: D form. The star is where a group is joined. C20 diacid = O=C(O)CCCCCCCCCCCCCCCCCCC(=O)*; γGlu = O=C(O)[C@H](CCC(=O)[*:2])N[*:1]; εLys = N[C@@H](CCCCN[*:1])C(=O)[*:2]; pGlu = O=C1CC[C@@H](C(=O)O)N1; αMeL = CC(C)C[C@](C)(N)C(=O)O; AEEA = NCCOCCOCC(=O)O; Aib = CC(C)(N)C(=O)O
Measured half-life of individual entries
Answer in h, number only, no unit symbol.

{"substance": "[pGlu]GSPSGIVTS[αMeL]DVPT[Aib][αMeL]LQKILEQERAEKARQQAK([γGlu-AEEA-εLys-C20 diacid])EAAEILAQV-NH2 [SEQ ID NO: 22]", "metric": "half-life", "value-reported": 27.4}
{"substance": "Ac-GSPSIVTS[αMeL]DVPT[Aib][αMeL]LQKILEQERAEKARQQAK([γGlu-AEEA-εLys-C20 diacid])EAAEILAQV-NH2 [SEQ ID NO: 1]", "metric": "half-life", "value-reported": 31.5}

Proceed to the following item.
[in] Given the substance {C20 diacid-εLys-AEEA-γGlu}-GSPSIVTS[αMeL]DVPT[Aib][αMeL]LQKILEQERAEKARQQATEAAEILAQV-NH2 [SEQ ID NO: 25] , what is its reported half-life?
[out] 19.2

* * *

target-or-test-system: human CRHR1 (Homo sapiens, UniProt P34998)
Construct: expressed in transfected cells
Sequence (P34998 24-415): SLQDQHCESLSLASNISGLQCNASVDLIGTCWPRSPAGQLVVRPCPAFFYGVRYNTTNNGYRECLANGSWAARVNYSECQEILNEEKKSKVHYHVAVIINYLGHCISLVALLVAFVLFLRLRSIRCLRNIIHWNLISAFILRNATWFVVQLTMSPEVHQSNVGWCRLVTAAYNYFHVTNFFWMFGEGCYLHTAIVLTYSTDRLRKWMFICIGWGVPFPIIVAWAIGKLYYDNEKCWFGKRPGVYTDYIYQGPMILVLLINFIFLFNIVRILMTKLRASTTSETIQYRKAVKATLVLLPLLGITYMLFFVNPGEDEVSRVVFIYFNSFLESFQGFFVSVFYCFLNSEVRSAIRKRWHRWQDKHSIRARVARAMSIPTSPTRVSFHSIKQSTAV
assay-summary: Human CRHR1 cAMP assay (HTRF) in HEK293 cells stably expressing human CRHR1
Type: cell-based
condition-label: HEK293 cells overexpressing human CRHR1; relative EC50, maximum 66 nM human UCN1; mean ± SE; read-out: hCRHR1 cAMP EC50 (pM, ± SE)
*1 amine or outer side, *2 acyl side, *3 side chain or, on linkers, in order; H or OH if unused. Side-chain parts run from the residue outwards. [ ]: non-standard residue; d: D form. The star is where a group is joined. C20 diacid = O=C(O)CCCCCCCCCCCCCCCCCCC(=O)*; γGlu = O=C(O)[C@H](CCC(=O)[*:2])N[*:1]; εLys = N[C@@H](CCCCN[*:1])C(=O)[*:2]; αMeL = CC(C)C[C@](C)(N)C(=O)O; AEEA = NCCOCCOCC(=O)O; Aib = CC(C)(N)C(=O)O
metric: EC50

Some solved cases for reference:
{"substance": "Ac-GSPSIVTS[αMeL]DVPT[Aib][αMeL]LQKILEQERAEKARQQAK([γGlu-εLys-γGlu-εLys-C20 diacid])EAAEILAQV-NH2 [SEQ ID NO: 18]", "EC50": "> 1e+07 pM"}
{"substance": "Ac-PPPIVTS[αMeL]D[dV]PT[Aib][αMeL]LQKLLEQERAEKARQQAK([γGlu-AEEA-εLys-C20 diacid])EAAEILAQV-NH2 [SEQ ID NO: 47]", "EC50": "2.3e+06 pM"}

Proceed to the following item.
[in] Given the substance Ac-GSPSIVTS[αMeL]DVPT[Aib][αMeL]LQKILEQERAEKARQQAK([γGlu-AEEA-AEEA-εLys-C20 diacid])EAAEILAQV-NH2 [SEQ ID NO: 17] , what is its reported EC50?
[out] > 1e+07 pM
